Below, each entry is listed alongside its reported EC50.
Molecular target: T1, human CEACAM5 (carcinoembryonic antigen, CEA) on cells (human, UniProt P06731 35-685)
T1 construct: endogenous on MKN45 gastric adenocarcinoma cells; full-length cDNA stably transfected in the CHO-K1 clones; also called huCEACAM5; MKN45 cells
T1 sequence: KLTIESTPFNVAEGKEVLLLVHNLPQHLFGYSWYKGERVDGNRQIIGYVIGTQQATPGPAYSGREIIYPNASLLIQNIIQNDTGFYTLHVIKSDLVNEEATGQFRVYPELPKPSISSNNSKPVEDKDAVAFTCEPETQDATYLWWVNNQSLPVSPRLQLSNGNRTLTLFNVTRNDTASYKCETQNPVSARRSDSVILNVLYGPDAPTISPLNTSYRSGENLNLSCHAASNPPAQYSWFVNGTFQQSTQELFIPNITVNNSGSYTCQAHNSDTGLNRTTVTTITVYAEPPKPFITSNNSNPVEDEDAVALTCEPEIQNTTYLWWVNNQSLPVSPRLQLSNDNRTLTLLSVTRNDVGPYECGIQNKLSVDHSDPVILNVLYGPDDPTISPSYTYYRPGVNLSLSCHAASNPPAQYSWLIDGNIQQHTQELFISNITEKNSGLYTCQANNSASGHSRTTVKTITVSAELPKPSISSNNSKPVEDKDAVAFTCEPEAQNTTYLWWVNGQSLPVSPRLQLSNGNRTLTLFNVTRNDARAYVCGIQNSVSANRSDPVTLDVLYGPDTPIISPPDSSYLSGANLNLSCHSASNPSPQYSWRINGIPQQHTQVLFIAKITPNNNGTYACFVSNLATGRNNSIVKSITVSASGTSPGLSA
Assay: flow cytometry, MKN45 cells
Report the value in nM with no unit label.

[
  {
    "binder": "P1AE3120 (antibody, IgG1, V domains shown, huIgG1 P329G LALA; also called MFE-H29 / MFE-L24) VH: QVQLVQSGAEVKKPGSSVKVSCKASGFNIKDSYMHWVRQAPGQGLEWMGWIDPENGDTEYAPKFQGRVTITTDESTSTAYMELSSLRSEDTAVYYCNEGTPTGPYYFDYWGQGTLVTVSS VL: DIQMTQSPSSLSASVGDRVTITCRASSSVSYMHWYQQKPGKAPKLLIYSTSNLASGVPSRFSGSGSGTDFTLTISSLQPEDFATYYCQQRSSYPLTFGGGTKLEIK",
    "EC50, nM": 12.4
  }
]

Note: attention shifts to another entry.
input: # query: EC50 of entry P1AE3101 (antibody, IgG1, V domains shown, huIgG1 P329G LALA; also called MFE-H24 / MFE-L28; huMFE23-L28-H24) VH: QVQLVQSGAEVKKPGASVKVSCKASGFNIKDSYMHWVRQAPGQGLEWMGWIDPENGDTEYAPKFQGRVTMTTDTSISTAYMELSRLRSDDTAVYYCNEGTPTGPYYFDYWGQGTLVTVSS VL: EIQMTQSPSSLSASVGDRVTITCRASSSVPYMHWLQQKPGKAPKLLIYSTSNLASGVPSRFSGSGSGTDFTLTISSVQPEDFATYYCQQRSSYPLTFGGGTKLEIK
output: 6.58
